- Test system: EKVX
- protocol notes: NCI tumour cell line growth inhibition, 48 h
Calls of active or inactive are those of the source. Rule as the data show it: active = GI50 up to about 1.1 µM and inactive = higher.
# output must be one of YES for active, NO for inactive

Example entries and their recorded answers appear below.
molecule="CCC(C(=O)c1ccccc1)C(CCCC(=O)Nc1c(C)cccc1C)N=O (stereo unspecified)" assigned_category=NO
molecule=CC(C)Oc1c(C2(c3ccccc3O)SCCCS2)c(=O)c1=O assigned_category=NO
molecule=CC(C)c1cc(C(F)(F)F)nc(NNc2nc(C(C)C)cc(C(F)(F)F)n2)n1 assigned_category=NO
molecule="CCCCC(C)C1CCC2(C)C=CC(=O)C(C)=C2C1O (stereo unspecified)" assigned_category=NO
molecule=CCCCCCCCCCCCCC[S+](C)C assigned_category=NO
molecule="COc1ccc2c(c1O)C13CCN(C)C(C2)C1CCC1(C3)OCCO1 (stereo unspecified)" assigned_category=NO
molecule="CCN1CCC(O)(/C=C/c2ccc(Cl)c(Cl)c2)C(C(=O)/C=C/c2ccc(Cl)c(Cl)c2)C1 (stereo unspecified)" assigned_category=YES
molecule="CC(C)CCNC(=O)C(CC(C)C)NC(=O)[C@H]1O[C@@H]1C(=O)O (stereo partly specified)" assigned_category=NO
molecule=NNC(=O)Nc1nc2ccc(NN)cc2[nH]1 assigned_category=NO
molecule=C#CCN(CC#C)C(=O)C(=O)c1c[nH]c2ccc(OC)cc12 assigned_category=NO

Note: attention shifts to another entry.
What did this assay record as the result for `CC1=C(C(=O)Nc2ccccc2)C(c2ccc(Cl)c(Cl)c2)C(C(=O)Nc2ccccc2)=C(C)N1` ?
NO

###

- System: SF-268
- protocol notes: NCI tumour cell line growth inhibition, 48 h
The source made the active and inactive calls. No stated cut-off is given here; in the data, active = GI50 up to about 1.1 µM and inactive = higher.
# output must be one of active, inactive

Example entries and their recorded answers appear below.
molecule=CSc1ccc(/C=C2\N=C(c3ccccc3)N(/N=C/c3cc4cc(C)ccc4nc3Cl)C2=O)cc1 assigned_category=inactive
molecule=O=C(NO)C(=O)Nc1cc(Cl)ccc1Cl assigned_category=inactive
molecule="O=C(O)C(O)C(O)C(O)C(O)CO.[Ba+2] (centres undefined)" assigned_category=inactive

Note: attention shifts to another entry.
What did this assay record as the result for `CCCCCCCCC[n+]1cccc(C2C(C(=O)OCC)=C(C)NC(C)=C2C(=O)OCC)c1` ?
inactive

###

- System: DMS-273
- protocol notes: NCI tumour cell line growth inhibition, 48 h
Active and inactive are the calls of the source. Rule as the data show it: active = GI50 up to about 1.1 µM and inactive = higher.
readout: GI50

compound=COc1ccc(/C=C2\C(=O)N(C(=O)Cc3ccccc3)N=C2C)cc1OC target_of_assay=DMS-273 readout=GI50 observed_result="> 100 µM (inactive)"
compound="CCCCCCCCCCC(C)CCCCCCC(=O)O (stereo not given)" target_of_assay=DMS-273 readout=GI50 observed_result="> 100 µM (inactive)"
compound="Nc1nc(SCCC/C=C/I)nc2c1ncn2C1OC(CO)C(O)C1O (stereo not given)" target_of_assay=DMS-273 readout=GI50 observed_result="> 202 µM (inactive)"
compound=CS(=O)(=O)OCC1=C(COS(C)(=O)=O)C(=O)c2c(O)ccc(O)c2C1=O target_of_assay=DMS-273 readout=GI50 observed_result="> 100 µM (inactive)"
compound=CN1COc2c(n(C)c(=O)[nH]c2=O)C1 target_of_assay=DMS-273 readout=GI50 observed_result="45.7 µM (inactive)"
compound="O=C1CC(c2c[nH]c3ccccc23)C(=O)N1c1ccccc1 (stereo not given)" target_of_assay=DMS-273 readout=GI50 observed_result="> 100 µM (inactive)"
compound=Cc1cc(NC(=O)NC(=O)c2ccccc2NC(=O)CN(C)C)ccc1Oc1ncc(Br)cn1 target_of_assay=DMS-273 readout=GI50 observed_result="3.74 µM (inactive)"
compound=Cc1cc(C(C)C)cc(=O)c(O)c1 target_of_assay=DMS-273 readout=GI50 observed_result="> 100 µM (inactive)"

The following compounds each have a reported value; give each one's GI50.
1. Cn1cc(C(=O)c2ccccc2)cc(C(=O)c2ccccc2)c1=O
2. CCCc1ccc(/N=C\c2cc(OC)c(OC)c(OC)c2)cc1

1: > 100 µM (inactive); 2: > 83.4 µM (inactive)

###

- Tested on: MOLT-4
- protocol notes: NCI tumour cell line growth inhibition, 48 h
The source made the active and inactive calls. Cut-off read from the data, not from the text of the source: active = GI50 up to about 1.1 µM and inactive = higher.
# output must be one of YES = active, NO = inactive

Example entries and their recorded answers appear below.
compound=Cn1cco/c1=N/c1ccc(Cl)c(Cl)c1 assigned_category=NO
compound="CC(C1=CC=C2[C@@H]3CCC4CC(N(C)C)CC[C@]4(C)C3CC[C@]12C)N(C)C=O (stereo not given in full)" assigned_category=NO

What did this assay record as the result for `Cc1c2ccnc(-c3ccccc3)c2cc2c1[nH]c1ccccc12` ?
NO

What did this assay record as the result for `COC(=O)c1ccccc1/C=C1\Cc2ccc3c(c2C1=O)CCC3` ?
NO

What did this assay record as the result for `C#CCn1c(=O)c(C)cn(/C(=C\C(=O)OCC)C(=O)OCC)c1=O` ?
NO

What did this assay record as the result for CC1OC(CC(=O)O)CC2=C1C(=O)c1c(O)cccc1C2=O (stereo not given) [NANAOMYCIN] ?
YES

What did this assay record as the result for Cc1cc(Br)cc(C)c1NC(=O)C(=O)C(C(=O)c1ccc2ccccc2c1)C1OC(=O)c2ccccc21 (stereo not given) ?
NO

What did this assay record as the result for C[C@]12C(=O)C=CCC1=CC[C@@H]1[C@@H]2[C@H]2CC3(O)C(=O)O[C@@]4(C)[C@H]5C[C@@]6(C)[C@@H]7[C@@]2(O)[C@]1(OC[C@H]6C(=O)O5)O[C@]734 (stereo not given in full) ?
NO

What did this assay record as the result for CCOP(=O)(OCC)C1=NC=CC=CC1n1c(-c2ccccc2)nn(CC)c1=O (stereo not given) ?
NO

What did this assay record as the result for CCCCCN(CCCCC)CC(C)(C)C(O)c1ccc(OC)c2ccccc12 (stereo not given) ?
NO

###

- Tested on: SN12C
- protocol notes: NCI tumour cell line growth inhibition, 48 h
Calls of active or inactive are those of the source. No stated cut-off is given here; in the data, active = GI50 up to about 1.1 µM and inactive = higher.
# output must be one of T (active), F (inactive)

compound="COc1ccc2nc(NC(=O)C(=O)C(C#N)c3ccc(Cl)c(Cl)c3)sc2c1 (stereo not drawn)" assigned_category=F
compound=C=CCn1c(=O)c(-c2ccccc2)c(O)c2ccccc21 assigned_category=F
compound="C=C1C(=O)OC2CC(C)C(C(O)CC(C)O)=CCC12 (stereo not drawn)" assigned_category=F
compound=N#Cc1c(O)c(/N=N/c2ccccc2F)c(=O)n2c1[nH]c1ccccc12 assigned_category=F
compound=CCCCc1ccc(N2C(=O)c3cc(C)cnc3S2(=O)=O)cc1 assigned_category=F

What did this assay record as the result for `COc1ccc(/C(Cl)=C(\CNc2ccccn2)c2ccccc2)cc1OC` ?
F

What did this assay record as the result for `CCCCCCCCNC(=O)SCCCC` ?
F

What did this assay record as the result for `N#Cc1cc2c(cc1C#N)/C(=N\c1cccc(N)n1)N/C2=N\c1cccc(N)n1` ?
F

What did this assay record as the result for `O=C(O)c1ccc(OCc2ccccc2)c(Cl)c1` ?
F

What did this assay record as the result for NC(CCc1ccccc1)(C(=O)O)c1ccccc1 (stereo not drawn) ?
F

What did this assay record as the result for O=C1c2cccnc2C(=O)C2C3C=CC(C3)C12 (stereo not drawn) ?
F

What did this assay record as the result for `O=C1C(c2c(O)[nH]c3ccc(F)cc23)=Nc2ccccc21` ?
F

What did this assay record as the result for `COc1ccc2[nH]c3ccc4cc[n+](CCN5CCC(C6CCN(CC[n+]7ccc8ccc9[nH]c%10ccc(OC)cc%10c9c8c7)CC6)CC5)cc4c3c2c1` ?
T

What did this assay record as the result for COC(=O)c1c(C)ccc2c(O)c3c(cc12)C(=O)c1c2c(cc(O)c1C3=O)C1(C)OC(C)(O2)C(O)C(N(C)C)C1O (stereo not drawn) ?
F

What did this assay record as the result for `Nc1nc2cc(CNc3ccc(C(=O)O)cc3)ccc2nc1-c1ccccc1` ?
F

###

- Test system: BT-549
- protocol notes: NCI tumour cell line growth inhibition, 48 h
Active and inactive are the calls of the source. No stated cut-off is given here; in the data, active = GI50 up to about 1.1 µM and inactive = higher.
readout: GI50

record_smiles=CC1(C)S[C@@H]2[C@H](NC(=O)[C@H](N)c3ccccc3)C(=O)N2[C@H]1C(=O)O observed_result="> 100 µM (inactive)"
record_smiles=c1ccc2c(c1)CC1=C(O2)c2ccccc2OC1 observed_result="25.1 µM (inactive)"

Then this molecule:
// recorded GI50 for `COc1ccc(-n2cnn3c(=O)c4cn[nH]c4nc23)cc1` : > 10 µM (inactive)

###

- Test system: SNB-75
- protocol notes: NCI tumour cell line growth inhibition, 48 h
The source made the active and inactive calls. No stated cut-off is given here; in the data, active = GI50 up to about 1.1 µM and inactive = higher.
Field: GI50. Provide a value for each of the compounds that follow.

Consider the following illustrative entries.
compound="CC(=O)OCC1OC(n2cc(F)c(=O)[nH]c2=O)C(NC(=O)OCc2ccccc2)C(OC(C)=O)C1OC(C)=O (stereo not drawn)" readout=GI50 observed_result="> 100 µM (inactive)"
compound="O=C(Nc1cccc(C(F)(F)F)c1)C(=O)C(C(=O)c1ccc(Cl)c(Cl)c1)C1OC(=O)c2ccccc21 (stereo not drawn)" readout=GI50 observed_result="22.7 µM (inactive)"

The following compounds each have a reported value; give each one's GI50.
1. COc1ccc2c(c1)CCc1cc(OC)ccc1/[N+]([O-])=[N+]\2[O-]
2. O=C(NNc1nc(-c2ccccc2)cs1)C(F)(F)F
3. Cc1cc(S(=O)(=O)N/C(=N/N)NCCc2ccccc2)c(S)cc1Cl

1: 17.9 µM (inactive); 2: 19 µM (inactive); 3: 25.6 µM (inactive)
